Attribution: paper PMC7402526

# maps each entry to its activity at 0.001 µM
Tested on: early erythroid cells (Eryth I)
Assay: MLTA, ErythI: concentration-response and QSP model fit
Assay type: cell-based, human
Details: Homo sapiens, 144 h; dose 1 nM, 6 days, normalized to vehicle control; read-out: ErythI normalized cell count
Please reply with the bare figure in % and do not write the unit itself.

Example results:
>  <compound>
CN(C)C(=O)c1cc2cnc(Nc3ccc(N4CCNCC4)cn3)nc2n1C1CCCC1

>  <measured on>
early erythroid cells (Eryth I)

>  <activity at 0.001 µM, %>
102

$$$$
>  <compound>
CC(=O)O[C@H]1C(=O)[C@@]2(C)[C@H]([C@H](OC(=O)c3ccccc3)[C@]3(O)C[C@H](OC(=O)[C@H](O)[C@@H](NC(=O)c4ccccc4)c4ccccc4)C(C)=C1C3(C)C)[C@]1(OC(C)=O)CO[C@@H]1C[C@@H]2O

>  <measured on>
early erythroid cells (Eryth I)

>  <activity at 0.001 µM, %>
112

$$$$
>  <compound>
O=C1CCC(N2C(=O)c3ccccc3C2=O)C(=O)N1 (centres unmarked) [thalidomide]

>  <measured on>
early erythroid cells (Eryth I)

>  <activity at 0.001 µM, %>
120

$$$$

Inquiry: What activity at 0.001 µM value was documented for this compound, `CC(=O)c1c(C)c2cnc(Nc3ccc(N4CCNCC4)cn3)nc2n(C2CCCC2)c1=O` ?
Reply text: 109

Inquiry: Next compound up: `CCN1CCN(Cc2ccc(Nc3ncc(F)c(-c4cc(F)c5nc(C)n(C(C)C)c5c4)n3)nc2)CC1`
Reply text: 116

----------
Test system: granulocyte progenitor (Gran-lin prog)
Test: MLTA, GranP: concentration-response and QSP model fit
Assay type: cell-based, human
Conditions: Homo sapiens, 144 h; dose 500 nM, 6 days, normalized to vehicle control; read-out: GranPs normalized cell count
# maps each entry to its activity at 0.5 µM
Please reply with the bare figure in % and do not write the unit itself.

Example results:
>  <molecule>
CC(=O)O[C@H]1C(=O)[C@@]2(C)[C@H]([C@H](OC(=O)c3ccccc3)[C@]3(O)C[C@H](OC(=O)[C@H](O)[C@@H](NC(=O)c4ccccc4)c4ccccc4)C(C)=C1C3(C)C)[C@]1(OC(C)=O)CO[C@@H]1C[C@@H]2O

>  <activity at 0.5 µM / %>
0.032

$$$$
>  <molecule>
O=C1CCC(N2C(=O)c3ccccc3C2=O)C(=O)N1 (centres unmarked) [thalidomide]

>  <activity at 0.5 µM / %>
94.5

$$$$
>  <molecule>
CC(=O)c1c(C)c2cnc(Nc3ccc(N4CCNCC4)cn3)nc2n(C2CCCC2)c1=O

>  <activity at 0.5 µM / %>
8.03

$$$$
>  <molecule>
CS(=O)(=O)N1CCN(Cc2cc3nc(-c4cccc5[nH]ncc45)nc(N4CCOCC4)c3s2)CC1

>  <activity at 0.5 µM / %>
60.8

$$$$

Inquiry: Item `CCN1CCN(Cc2ccc(Nc3ncc(F)c(-c4cc(F)c5nc(C)n(C(C)C)c5c4)n3)nc2)CC1` with granulocyte progenitor (Gran-lin prog) - activity at 0.5 µM?
Reply text: 2.43

Inquiry: Next molecule up: `CC(=O)O[C@@]12CO[C@@H]1C[C@H](O)[C@@]1(C)C(=O)[C@H](O)C3=C(C)[C@@H](OC(=O)[C@H](O)[C@@H](NC(=O)OC(C)(C)C)c4ccccc4)C[C@@](O)([C@@H](OC(=O)c4ccccc4)[C@H]21)C3(C)C`
Reply text: 0.0147

Inquiry: Next molecule up: `CCc1cnn2c(NCc3ccc[n+]([O-])c3)cc(N3CCCC[C@H]3CCO)nc12`
Reply text: 0.033

Inquiry: Next molecule up: `CN(C)C(=O)c1cc2cnc(Nc3ccc(N4CCNCC4)cn3)nc2n1C1CCCC1`
Reply text: 34.4

----------
Test system: B cells (B-lin)
Assay: MLTA, B-lin: concentration-response and QSP model fit
Format: cell-based, human
Conditions: Homo sapiens, B-cell; QSP model parameter, sheet EC50_parameters; B
parameter measured: pEC50
Give only the number. pEC50 is defined as minus log10 of concentration in molar units.

Example results:
>  <compound>
Cc1sc2c(c1C)C(c1ccc(Cl)cc1)=N[C@@H](CC(=O)Nc1ccc(O)cc1)c1nnc(C)n1-2

>  <parameter measured>
pEC50

>  <value reported>
6.37

$$$$
>  <compound>
Nc1ccn([C@@H]2O[C@H](CO)[C@@H](O)[C@@H]2O)c(=O)n1

>  <parameter measured>
pEC50

>  <value reported>
8.13

$$$$

Inquiry: What pEC50 value was documented for this compound, Nc1cccc2c1CN(C1CCC(=O)NC1=O)C2=O (stereo not shown) [Lenalidomide] ?
Reply text: 6.00

Inquiry: Next compound up: `CC(C)C[C@H](NC(=O)[C@H](Cc1ccccc1)NC(=O)c1cnccn1)B(O)O`
Reply text: 7.44

----------
Tested on: human bone marrow-derived CD34+ cells differentiated into multiple hematopoietic lineages
Test: MLTA, overall effects across hematopoietic lineages
Assay type: cell-based
Settings: QSP model fit; EmaxT > 1.0 = cell-killing
parameter measured: EmaxT effects across cell types (overall statement)

Example results:
>  <molecule>
CCc1cnn2c(NCc3ccc[n+]([O-])c3)cc(N3CCCC[C@H]3CCO)nc12

>  <measured on>
human bone marrow-derived CD34+ cells differentiated into multiple hematopoietic lineages

>  <value reported>
> 1.0

$$$$
>  <molecule>
CC(=O)O[C@H]1C(=O)[C@@]2(C)[C@H]([C@H](OC(=O)c3ccccc3)[C@]3(O)C[C@H](OC(=O)[C@H](O)[C@@H](NC(=O)c4ccccc4)c4ccccc4)C(C)=C1C3(C)C)[C@]1(OC(C)=O)CO[C@@H]1C[C@@H]2O

>  <measured on>
human bone marrow-derived CD34+ cells differentiated into multiple hematopoietic lineages

>  <value reported>
> 1.0

$$$$
>  <molecule>
CC(=O)O[C@@]12CO[C@@H]1C[C@H](O)[C@@]1(C)C(=O)[C@H](O)C3=C(C)[C@@H](OC(=O)[C@H](O)[C@@H](NC(=O)OC(C)(C)C)c4ccccc4)C[C@@](O)([C@@H](OC(=O)c4ccccc4)[C@H]21)C3(C)C

>  <measured on>
human bone marrow-derived CD34+ cells differentiated into multiple hematopoietic lineages

>  <value reported>
> 1.0

$$$$

Now for a further molecule.
Inquiry: What EmaxT effects across cell types (overall statement) value was documented for this molecule, O=C1CCC(N2C(=O)c3ccccc3C2=O)C(=O)N1 (centres unmarked) [thalidomide] ?
Reply text: ≤ 0.1

----------
Test system: granulocytes (Gran-lin)
Assay: MLTA, Gran: concentration-response and QSP model fit
Format: cell-based, human
Details: Homo sapiens, 144 h; dose 25 nM, 6 days, normalized to vehicle control; read-out: Gran normalized cell count
Method: A custom optimized cytokine cocktail was developed using commercially available cytokines (Peprotech, New Jersey) to facilitate simultaneous multi-lineage differentiation and self-renewal of freeze-thawed primary human bone marrow-derived CD34+ cells in SFEM II media (cells and media from StemCell Technologies, Vancouver). […] Donor material was collected and cultured as described above. […] Following treatment, cell populations were measured using flow cytometry. […]
# maps each entry to its activity at 0.025 µM
Please reply with the bare figure in % and do not write the unit itself.

>  <compound>
CN(C)C(=O)c1cc2cnc(Nc3ccc(N4CCNCC4)cn3)nc2n1C1CCCC1 [ribociclib]

>  <activity at 0.025 µM [%]>
74.6

$$$$
>  <compound>
CCc1cnn2c(NCc3ccc[n+]([O-])c3)cc(N3CCCC[C@H]3CCO)nc12 [dinaciclib]

>  <activity at 0.025 µM [%]>
32.8

$$$$
>  <compound>
CC(=O)c1c(C)c2cnc(Nc3ccc(N4CCNCC4)cn3)nc2n(C2CCCC2)c1=O [palbociclib]

>  <activity at 0.025 µM [%]>
53.9

$$$$
>  <compound>
CCN1CCN(Cc2ccc(Nc3ncc(F)c(-c4cc(F)c5nc(C)n(C(C)C)c5c4)n3)nc2)CC1 [abemaciclib]

>  <activity at 0.025 µM [%]>
34.6

$$$$

Now for a further compound.
Inquiry: What activity at 0.025 µM value was documented for this compound, O=C1CCC(N2C(=O)c3ccccc3C2=O)C(=O)N1 (centres unmarked) [thalidomide] ?
Reply text: 126

----------
System: early erythroid cells (Eryth I)
Test: MLTA, ErythI: concentration-response and QSP model fit
Assay type: cell-based, human
Settings: Homo sapiens, 144 h; dose 2500 nM, 6 days, normalized to vehicle control; read-out: ErythI normalized cell count
# maps each entry to its activity at 2.5 µM
Please reply with the bare figure in % and do not write the unit itself.

>  <molecule>
CCN1CCN(Cc2ccc(Nc3ncc(F)c(-c4cc(F)c5nc(C)n(C(C)C)c5c4)n3)nc2)CC1

>  <unit of measurement>
%

>  <value reported>
0.613

$$$$
>  <molecule>
O=C1CCC(N2C(=O)c3ccccc3C2=O)C(=O)N1 (centres unmarked) [thalidomide]

>  <unit of measurement>
%

>  <value reported>
136

$$$$
>  <molecule>
CC(=O)c1c(C)c2cnc(Nc3ccc(N4CCNCC4)cn3)nc2n(C2CCCC2)c1=O

>  <unit of measurement>
%

>  <value reported>
2.34

$$$$

Inquiry: Item `CC(=O)O[C@@]12CO[C@@H]1C[C@H](O)[C@@]1(C)C(=O)[C@H](O)C3=C(C)[C@@H](OC(=O)[C@H](O)[C@@H](NC(=O)OC(C)(C)C)c4ccccc4)C[C@@](O)([C@@H](OC(=O)c4ccccc4)[C@H]21)C3(C)C` with early erythroid cells (Eryth I) - activity at 2.5 µM?
Reply text: 0.409

Inquiry: Next molecule up: `CN(C)C(=O)c1cc2cnc(Nc3ccc(N4CCNCC4)cn3)nc2n1C1CCCC1`
Reply text: 9.42

Inquiry: Next molecule up: `CC(=O)O[C@H]1C(=O)[C@@]2(C)[C@H]([C@H](OC(=O)c3ccccc3)[C@]3(O)C[C@H](OC(=O)[C@H](O)[C@@H](NC(=O)c4ccccc4)c4ccccc4)C(C)=C1C3(C)C)[C@]1(OC(C)=O)CO[C@@H]1C[C@@H]2O`
Reply text: 0.379

Inquiry: Next molecule up: `CS(=O)(=O)N1CCN(Cc2cc3nc(-c4cccc5[nH]ncc45)nc(N4CCOCC4)c3s2)CC1`
Reply text: 27.5

Inquiry: Next molecule up: `CCc1cnn2c(NCc3ccc[n+]([O-])c3)cc(N3CCCC[C@H]3CCO)nc12`
Reply text: 0.845
